Data credit: a melting point compilation (Tetko et al.)

property.name: melting point

Answered cases to consult:
CC(C)Oc1c(F)cc(N)cc1F = 60 to 62 °C
O=C(O)c1ccc(N2CCCC2=O)cc1 = 250 to 252 °C
Cc1cc(C)nc(-n2nc(C(=O)O)cc2C)n1 = 189 to 191 °C
C/C(=N\O)c1sc(C(C)(C)C)nc1C = 117 to 119 °C
COc1ccc(C(=O)N(C)C)cc1N = 119 to 121 °C

[ask] Please give the measured melting point for this molecule: NS(=O)(=O)c1ccc(F)cc1C(=O)O
[reply] 218 to 220 °C

[ask] Please give the measured melting point for this molecule: O=C(O)CCN1C(=O)c2ccc(Br)cc2C1=O
[reply] 209 to 211 °C

[ask] Please give the measured melting point for this molecule: NC(=O)NCC1CCCNC1 (configuration not stated)
[reply] 83 to 85 °C

[ask] Please give the measured melting point for this molecule: Cc1ccccc1OCCCC(=O)Nc1ccc(CN)cc1
[reply] 82 to 84 °C

[ask] Please give the measured melting point for this molecule: COc1ccc(-c2nn(-c3ccccc3)cc2C(=O)O)cc1OC
[reply] 188 to 190 °C

[ask] Please give the measured melting point for this molecule: CC(O)c1ccc(O)cc1 (configuration not stated)
[reply] 131 to 133 °C

[ask] Please give the measured melting point for this molecule: CCOc1cc(N)c(Br)cc1OCC
[reply] 50 to 52 °C
